This collection of values is drawn from paper PMC8222333.

- TESTED_ON: d-enCas12a (Acidaminococcus sp., UniProt U2UMQ6 1-1307, E174R;S542R;K548R;D908A;E993A;D1235A)
- PROTOCOL_SUMMARY: Spec-seq (native PAGE EMSA with sequencing of bound and unbound); 25 mM Tris-HCl pH 7.4, 150 mM KCl, 5 mM MgCl2, 10% glycerol, 1 mM DTT, 40 ng/uL salmon sperm DNA; 400 nM Cas12a, 480 nM crRNA, 50 nM library, 37 C 1 h; native PAGE at room temperature; high values mean tight binding;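 also: relative affinity from the bound to unbound sequence frequency ratio in Spec-seq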
- MEASUREMENT_CONDITIONS: protein: recombinant
Reported binding signal values are given for each entry in this list.
QUANTITY: binding signal (lnKA)

INSERT INTO measurements (binder, quantity, numeric_readout) VALUES
  ('GCCT (dsDNA) DNA 1: GCTATCTAGTGCTCAGTACGCACTGGCCTAGGAAACTTCTGGCAGGACCAGGTCATGAGATCGGAAGAGCACACGTCTGAACTCCAGTCA DNA 2: TGACTGGAGTTCAGACGTGTGCTCTTCCGATCTCATGACCTGGTCCTGCCAGAAGTTTCCTAGGCCAGTGCGTACTGAGCACTAGATAGC RNA: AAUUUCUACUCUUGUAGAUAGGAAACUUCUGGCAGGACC', 'binding signal', -5.97),
  ('CAGA (dsDNA) DNA 1: GCTATCTAGTGCTCAGTACGCACTGCAGAAGGAAACTTCTGGCAGGACCAGGTCATGAGATCGGAAGAGCACACGTCTGAACTCCAGTCA DNA 2: TGACTGGAGTTCAGACGTGTGCTCTTCCGATCTCATGACCTGGTCCTGCCAGAAGTTTCCTTCTGCAGTGCGTACTGAGCACTAGATAGC RNA: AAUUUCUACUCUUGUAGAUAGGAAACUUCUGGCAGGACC', 'binding signal', -5.81),
  ('GCCG (dsDNA) DNA 1: GCTATCTAGTGCTCAGTACGCACTGGCCGAGGAAACTTCTGGCAGGACCAGGTCATGAGATCGGAAGAGCACACGTCTGAACTCCAGTCA DNA 2: TGACTGGAGTTCAGACGTGTGCTCTTCCGATCTCATGACCTGGTCCTGCCAGAAGTTTCCTCGGCCAGTGCGTACTGAGCACTAGATAGC RNA: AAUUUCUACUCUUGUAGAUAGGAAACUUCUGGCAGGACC', 'binding signal', -5.48);
